Biological target: Programmed cell death protein 1/Programmed cell death 1 ligand 1 (Homo sapiens, UniProt Q15116+Q9NZQ7)
Sequence (Q15116 whole entry): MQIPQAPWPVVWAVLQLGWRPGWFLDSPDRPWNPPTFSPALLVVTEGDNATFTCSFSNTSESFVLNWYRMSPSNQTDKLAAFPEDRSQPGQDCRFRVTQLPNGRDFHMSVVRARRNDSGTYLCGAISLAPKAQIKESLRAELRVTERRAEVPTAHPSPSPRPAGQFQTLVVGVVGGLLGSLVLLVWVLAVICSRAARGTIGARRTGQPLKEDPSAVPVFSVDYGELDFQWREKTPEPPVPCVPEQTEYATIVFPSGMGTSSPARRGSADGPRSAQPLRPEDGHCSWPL
Sequence (Q9NZQ7 whole entry): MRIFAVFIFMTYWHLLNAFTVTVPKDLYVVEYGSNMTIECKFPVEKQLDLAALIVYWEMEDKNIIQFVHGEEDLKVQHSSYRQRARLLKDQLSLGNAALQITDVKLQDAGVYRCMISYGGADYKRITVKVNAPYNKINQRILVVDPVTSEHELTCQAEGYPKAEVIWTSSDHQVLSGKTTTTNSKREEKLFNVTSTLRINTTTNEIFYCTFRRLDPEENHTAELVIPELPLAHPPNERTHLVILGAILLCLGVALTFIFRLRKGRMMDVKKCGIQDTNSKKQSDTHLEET
Assay: Inhibition of PD-1/PD-L1 (unknown origin) protein-protein interaction incubated for 15 mins by TR-FRET assay
pIC50: −log10 of the molar value.
In this section we review reported pIC50 values for a set of compounds.
Observation Type: pIC50

smiles_representation=COc1ccc(-c2cccc3c2CC[C@@H]3Oc2nc(OC)c(CNCCO)cc2Cl)cc1OC qualifying_sign=< value=7.00
smiles_representation=COc1nc(O[C@H]2CCc3c(-c4ccccc4F)cccc32)c(Cl)cc1CNCCO qualifying_sign== value=8.66
smiles_representation=COc1nc(O[C@H]2CCc3c(-c4ccc5c(c4)OCCO5)cccc32)c(Cl)cc1CN1CC[C@@H](O)C1 qualifying_sign== value=7.16
smiles_representation=COc1nc(O[C@H]2CCc3c(-c4ccc5c(c4)OCCO5)cccc32)c(Cl)cc1CNC[C@@H](O)CC(=O)O qualifying_sign== value=7.85
smiles_representation=COc1nc(O[C@H]2CCc3c(-c4ccc(F)cc4)cccc32)c(Cl)cc1CNCCO qualifying_sign== value=7.42
